experimental target: Neuropeptide Y receptor type 1 (Homo sapiens)
measurement protocol: NPY-Y1 receptor antagonists, selectivity check, counter-screen for NPY-Y2 antagonist project, cell-based (AID 1256);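 note: cells challenged with NPY then isoproterenol with cAMP sensed through a CNG channel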
settings: cell-based NPY-Y1 antagonism counterscreen; at 3.6 µM
This is one part of the list. Active and inactive are the calls of the source. Cut-off read from the data, not from the text of the source: active = inhibition above about 20%; inactive = the rest.
Please state which outcome applies, choosing from 1 (yes) (active), 0 (no) (inactive)

Exercise: Fill in: this test's call for "COC(=O)c1ccc(CSc2nc3cc(Cl)ccc3o2)cc1" is ___
Solution: 0 (no)

Exercise: Fill in: this test's call for CCOc1ccc(C(O)Cn2c(=N)n(CCN3CCCCC3)c3ccccc32)cc1 (stereo unspecified) is ___
Solution: 0 (no)

Exercise: Fill in: this test's call for CCOC(=O)C(C)Sc1nc2ccccc2c(=O)n1CC1CCCCC1 (stereo unspecified) is ___
Solution: 0 (no)

Exercise: Fill in: this test's call for COc1ccc(/C=C/C(=O)NC(=S)NN2CCCCC2c2cccnc2)cc1 (stereo unspecified) is ___
Solution: 1 (yes)

Exercise: Fill in: this test's call for N=c1n(Cc2ccc(Cl)cc2)c2ccccc2n1CC(O)c1ccco1 (stereo unspecified) is ___
Solution: 0 (no)

Exercise: Fill in: this test's call for "Cc1ccc(CCC(=O)Nc2ncc(Cc3cc(Cl)ccc3Cl)s2)o1" is ___
Solution: 0 (no)

###

experimental target: Neuropeptide Y receptor type 1 (Homo sapiens)
measurement protocol: NPY-Y1 receptor antagonists, selectivity check, counter-screen for NPY-Y2 antagonist project, cell-based (AID 1256);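 note: cells challenged with NPY then isoproterenol with cAMP sensed through a CNG channel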
settings: cell-based NPY-Y1 antagonism counterscreen; at 3.6 µM
The other results are listed elsewhere or left out. The source made the active and inactive calls. Cut-off read from the data, not from the text of the source: active = inhibition above about 20%; inactive = the rest.
Please state which outcome applies, choosing from Yes = active, No = inactive

Exercise: Fill in: this test's call for "COc1ccc(-c2noc(COc3ccc(Cl)c(C)c3)n2)cc1" is ___
Solution: No

Exercise: Fill in: this test's call for "CCOc1ccc(S(=O)(=O)N/N=C(\C)c2ccc(Cl)c(Cl)c2Cl)cc1" is ___
Solution: No

Exercise: Fill in: this test's call for "Cc1ccc(C2=NN(C)c3nc4ccccc4n3C2)cc1" is ___
Solution: No

Exercise: Fill in: this test's call for O=C(Nc1nnc(SCc2c(Cl)cccc2Cl)s1)C1CCCO1 (centres undefined) is ___
Solution: No

Exercise: Fill in: this test's call for "CCCCC(O)(CCCC)C(=O)NN(C(=O)CCl)c1ccccc1" is ___
Solution: No

Exercise: Fill in: this test's call for "CCCc1nc(SCC(=O)Nc2ccccc2OC)c2c(=O)n(C)c(=O)n(C)c2n1" is ___
Solution: Yes

Exercise: Fill in: this test's call for "CCCCCNC(=O)Cc1ccc(OC)cc1" is ___
Solution: No

Exercise: Fill in: this test's call for "Cc1ccc(S(=O)(=O)N(Cc2ccc(Cl)cc2)c2ccccc2C(=O)NCc2cccnc2)cc1" is ___
Solution: Yes

Exercise: Fill in: this test's call for "O=S(=O)(Cc1cc(Sc2ccccc2)nc(-c2ccccc2)n1)c1ccccc1" is ___
Solution: No
